For each entry below, report its 4-Hydroxysphinganine (t18:0, Phytosphingosine), total, ratio versus control value.
Test: Plasma metabolite profiling (GC-MS, LC-MS, SPE-LC-MS) of rats dosed once daily over 28 days; treatment ratios versus untreated control
Type: in vivo, rat
Conditions Used: rat, in vivo
Counter-ions that a name gives are not always drawn. Marks after values point to notes of the source that are not given here.

Quick check: 4-Hydroxysphinganine (t18:0, Phytosphingosine), total, ratio versus control of CNCCC(Oc1ccc(C(F)(F)F)cc1)c1ccccc1 (stereo not shown) [Fluoxetine hydrochloride] ?
1.34*

Quick check: 4-Hydroxysphinganine (t18:0, Phytosphingosine), total, ratio versus control of Fc1ccc([C@@H]2CCNC[C@H]2COc2ccc3c(c2)OCO3)cc1 [Paroxetine hydrochloride] ?
1.99*

Quick check: 4-Hydroxysphinganine (t18:0, Phytosphingosine), total, ratio versus control of OCCOCCN1CCN(C2=Nc3ccccc3Sc3ccccc32)CC1 [Quetiapine fumarate] ?
1.46*

Quick check: 4-Hydroxysphinganine (t18:0, Phytosphingosine), total, ratio versus control of O=C1Cc2cc(CCN3CCN(c4nsc5ccccc45)CC3)c(Cl)cc2N1 [Ziprasidone hydrochloride] ?
1.16*

====

Test: Plasma metabolite profiling (GC-MS, LC-MS, SPE-LC-MS) of rats dosed once daily over 28 days; treatment ratios versus untreated control
Assay type: in vivo, rat
Conditions Used: plasma, female rats, day 28, high dose, Table 6b
Where a name gives a salt, the structure may show the parent alone. Marks after values point to notes of the source that are not given here.
Recorded Metric: Pyruvate, ratio versus control

Quick check: Pyruvate, ratio versus control of C#CCN(C)[C@H](C)Cc1ccccc1 [Selegiline hydrochloride] ?
0.36*

Quick check: Pyruvate, ratio versus control of C=CCN1C[C@H](C(=O)N(CCCN(C)C)C(=O)NCC)C[C@@H]2c3cccc4[nH]cc(c34)C[C@H]21 [Cabergoline] ?
0.93

Quick check: Pyruvate, ratio versus control of C#C[C@]1(O)CC[C@H]2[C@@H]3CCc4cc(O)ccc4[C@H]3CC[C@@]21C [17-alpha-Ethynylestradiol] ?
0.87*

Quick check: Pyruvate, ratio versus control of CC(C)C[C@H]1C(=O)N2CCC[C@H]2[C@]2(O)O[C@](NC(=O)[C@@H]3C=C4c5cccc6[nH]c(Br)c(c56)C[C@H]4N(C)C3)(C(C)C)C(=O)N12 [Bromocriptine Mesylate] ?
0.71*

Quick check: Pyruvate, ratio versus control of CN1CCc2cccc3c2[C@H]1Cc1ccc(O)c(O)c1-3 [Apomorphine] ?
0.33*

====

For each entry below, report its Lactate, ratio versus control value.
Test: Plasma metabolite profiling (GC-MS, LC-MS, SPE-LC-MS) of rats dosed once daily over 28 days; treatment ratios versus untreated control
Assay type: in vivo, rat
Conditions Used: plasma, female rats, day 28, high dose, Table 6b
Provide a numeric answer; units are not to be included.

Quick check: Lactate, ratio versus control of CN1CCc2cccc3c2[C@H]1Cc1ccc(O)c(O)c1-3 [Apomorphine] ?
0.9

Quick check: Lactate, ratio versus control of C#C[C@]1(O)CC[C@H]2[C@@H]3CCc4cc(O)ccc4[C@H]3CC[C@@]21C [17-alpha-Ethynylestradiol] ?
0.99

====

Test: Plasma metabolite profiling (GC-MS, LC-MS, SPE-LC-MS) of rats dosed once daily over 28 days; treatment ratios versus untreated control
Format: in vivo, rat
Conditions Used: plasma, female rats, day 28, high dose, Table 6b
Counter-ions that a name gives are not always drawn. Marks after values point to notes of the source that are not given here.
Recorded Metric: Phosphatidylcholine No 04, ratio versus control

Quick check: Phosphatidylcholine No 04, ratio versus control of C#CCN(C)[C@H](C)Cc1ccccc1 [Selegiline hydrochloride] ?
0.84

Quick check: Phosphatidylcholine No 04, ratio versus control of CN1CCc2cccc3c2[C@H]1Cc1ccc(O)c(O)c1-3 [Apomorphine] ?
0.88*

Quick check: Phosphatidylcholine No 04, ratio versus control of CC(C)C[C@H]1C(=O)N2CCC[C@H]2[C@]2(O)O[C@](NC(=O)[C@@H]3C=C4c5cccc6[nH]c(Br)c(c56)C[C@H]4N(C)C3)(C(C)C)C(=O)N12 [Bromocriptine Mesylate] ?
0.47*

Quick check: Phosphatidylcholine No 04, ratio versus control of C#C[C@]1(O)CC[C@H]2[C@@H]3CCc4cc(O)ccc4[C@H]3CC[C@@]21C [17-alpha-Ethynylestradiol] ?
0.39*

Quick check: Phosphatidylcholine No 04, ratio versus control of C=CCN1C[C@H](C(=O)N(CCCN(C)C)C(=O)NCC)C[C@@H]2c3cccc4[nH]cc(c34)C[C@H]21 [Cabergoline] ?
0.34*
